experiment: preservation of ATP in cytokine-treated beta cells – cell-based, ATP luminescence, single point, primary screen (AID 488910)
condition.description: INS-1E cytokine-induced death, 48 h, at 10 µM, hits give high values, normalised: neutral wells 0, positive control 100
Among all 20,000 compounds or so, about 25 (0.1%) were called active. The list comes from a sample in which actives are over-represented; it also holds close analogues and randomly drawn compounds.
measured.attribute: protection from cytokine-induced ATP loss (%)
Answers are plain numbers, in %.

Record excerpt, results attached:
Cc1noc(C)c1NC(=O)Nc1ccc2c(c1)C(=O)N([C@H](C)CO)C[C@@H](C)[C@H](CN(C)Cc1ccncc1)O2 3.35
Cc1ccc(S(=O)(=O)N(C)C[C@H]2Oc3ccc(NS(=O)(=O)c4ccccc4)cc3CC(=O)N([C@@H](C)CO)C[C@H]2C)cc1 -6.07

Batch request: protection from cytokine-induced ATP loss for each of the following compounds.
1. Cc1ccc(S(=O)(=O)N(C)C[C@H]2Oc3c(NS(=O)(=O)c4cccs4)cccc3C(=O)N([C@@H](C)CO)C[C@@H]2C)cc1
2. COc1ccc(NC(=O)Nc2ccc3c(c2)C(=O)N([C@H](C)CO)C[C@H](C)[C@@H](CN(C)C(=O)Nc2ccc4c(c2)OCO4)O3)cc1
3. C[C@@H]1CN([C@@H](C)CO)C(=O)c2cccc(NS(=O)(=O)c3ccc(Cl)cc3)c2O[C@@H]1CN(C)C(=O)Nc1ccccc1
4. Cc1noc(C)c1NC(=O)Nc1cccc2c1O[C@@H](CN(C)CC1CCCCC1)[C@H](C)CN([C@@H](C)CO)C2=O
5. C[C@@H]1CN([C@H](C)CO)C(=O)Cc2cc(NC(=O)Cn3cnnn3)ccc2O[C@H]1CN(C)Cc1ccc(C(F)(F)F)cc1

Reply text:
1: -3.52; 2: 3.11; 3: 0.662; 4: -7.27; 5: 1.99
